- Target or test system: T1, human CD24 (human, UniProt P25063 27-59, heavily glycosylated, GPI-anchored (as described in the background))
- T1 construct: whole, on cells; Target of all cell-based FACS assays; also called hCD24; Cluster of differentiation 24
- T1 chain (looked up): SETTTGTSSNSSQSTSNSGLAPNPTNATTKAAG
- Test details: FACS, H1975 cells
- Description: Sequences of some of antibodies from Table 1 were selected to generate and produce human IgG4 chimeric antibodies. […] The protocol for FACs analysis is described as follows: [0536] a. Digested cells using TrypLE™ Express Enzyme (IX); Centrifuged the harvested cells at 400 g for 5 min and discarding the supernatant. [0537] b. Washed the cells 2 times with cold FACS buffer by centrifuging at 400 g for 5 min and discarding the supernatant. [0538] c. […] Incubate at 40° C. for 1 h. [0539] d. […]
Property: EC50
Kindly report the value followed by its unit.

Query: For 56A7E3 (antibody, V domains shown, mouse monoclonal antibody) VH: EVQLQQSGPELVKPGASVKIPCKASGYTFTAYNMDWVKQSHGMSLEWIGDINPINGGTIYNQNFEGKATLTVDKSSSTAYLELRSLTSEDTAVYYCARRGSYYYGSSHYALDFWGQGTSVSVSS VL: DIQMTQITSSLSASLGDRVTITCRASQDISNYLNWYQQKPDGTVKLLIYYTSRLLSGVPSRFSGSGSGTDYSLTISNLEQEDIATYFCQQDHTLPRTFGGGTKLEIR , what is its reported EC50?
Result: 93.1 nM

Query: For 73H5-1G2 (antibody, V domains shown, mouse monoclonal antibody) VH: QVQLKQSGPGLVQPSQSLSITCTVSGFSLTNYGVHWIRQSPGKGLEWLGVIWRGGSTDYNAAFMSRLSITKDNSKSQVFFQMNSLQAADTAIYYCANNYGYDCFAYWGQGTLVTVSA VL: DVQITQSPSYLAASPGETITINCRASKSIIKYLAWYQEKPGKTNKLLIYSGSTLQSGIPSRFSGSGSGTDFTLTITSLEPEDFAMYYCQQHNEYPLTFGAGTRLELK , what is its reported EC50?
Result: 31.3 nM

Query: For 100F2E3 (antibody, V domains shown, mouse monoclonal antibody) VH: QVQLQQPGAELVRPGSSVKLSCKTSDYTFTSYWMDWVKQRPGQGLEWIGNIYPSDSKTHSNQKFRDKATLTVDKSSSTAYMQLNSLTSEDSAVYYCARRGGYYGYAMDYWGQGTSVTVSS VL: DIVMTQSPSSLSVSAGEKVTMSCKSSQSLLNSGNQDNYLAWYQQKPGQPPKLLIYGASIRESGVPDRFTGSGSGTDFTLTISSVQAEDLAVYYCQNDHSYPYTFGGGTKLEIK , what is its reported EC50?
Result: 10 nM

Query: For 71A4F12 (antibody, V domains shown, mouse monoclonal antibody) VH: EVQLQQSGPELVKPGASVKIPCKASGYTFTAYNMDWVKQSHGMSLEWIGDINPNNGDTVYNQNFKGKATLTVDKSSSTAYMELRSLTSEDTAVYYCARRGSYYYGSSHYALDFWGQGTSVSVSS VL: DIQMTQITSSLSASLGNRVTISCRASQDIRNYLNWYQQKPDGTVKLLIYYTSRLLSGVPSRFSGSGSGTDYSLTISNLEQEDIATYFCQQDNSLPRTFGGGTRLEIR , what is its reported EC50?
Result: 71.9 nM

Query: For 58F10-1F6 (antibody, V domains shown, mouse monoclonal antibody) VH: EVQLRQSGPELVKPGAAVKISCKASGYSFTGYHMNWVKQSPEKSLEWIGEINPITSGITYNQIFKAKATLTVDKSSSTAYLQLKSLTSEDSAVYYCTRRDYGTSLDYWGQGTTLTVSS VL: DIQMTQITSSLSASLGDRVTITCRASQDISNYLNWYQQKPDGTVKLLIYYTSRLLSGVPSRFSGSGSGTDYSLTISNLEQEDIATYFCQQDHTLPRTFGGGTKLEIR , what is its reported EC50?
Result: 53.1 nM

Ref: patent US20240052052A1
